- EXPERIMENTAL_SYSTEM: human ANO6 (Homo sapiens)
- Construct: expressed in transfected cells
- EXPERIMENT_NOTES: YFP quenching assay (ANO6 ion channel activity)
- Assay type: cell-based
- CONDITION_SUMMARY: test compound 1 μM, 10 μM ionomycin, read-out: Inhibition Level 1 μM
Known inhibition at 1 µM of a selection of compounds
EXPERIMENTAL_READOUT: inhibition at 1 µM

1. Cc1ccc(CNC(=O)c2cccc(Nc3ccc(C4CCCO4)nn3)c2)o1 (stereo not drawn) [Compound 86] = < 30%
2. CCC(CC)NC(=O)c1cccc(Nc2ccc(-c3ccccc3)nn2)c1 [Compound 66] = 30 to 60%
3. CC(C)CNC(=O)c1cccc(Nc2ccc(-c3ccccc3)nn2)c1 [Compound A66] = ≥ 60%
4. COc1cccc(CCNC(=O)c2cccc(Nc3ncc(-c4cccc(F)c4)cn3)c2)c1 [Compound 78] = 30 to 60%
5. O=C(NCCc1cc(F)cc(F)c1)c1cccc(Nc2ncc(-c3ccccc3)cn2)c1 [Compound 82] = 30 to 60%
6. COc1ccc(-c2ccc(Nc3cccc(C(=O)NCc4ccc(C)o4)c3)nn2)cc1 [Compound 13] = < 30%
7. O=C(Nc1cccc(F)c1)c1cccc(Nc2ccc(-c3cccc(F)c3)cn2)c1 [Compound 122] = ≥ 60%
8. Cc1ccc(CNC(=O)c2cccc(Nc3ccc(C4CCCCC4)nn3)c2)o1 [Compound 63] = 30 to 60%
9. CCOc1ccc(CNC(=O)c2cccc(Nc3ccc(-c4ccccc4)nn3)c2)cc1OCC [Compound A54] = 30 to 60%

----------
- EXPERIMENTAL_SYSTEM: human ANO6 (Homo sapiens)
- Construct: expressed in transfected cells
- Sequence (Q4KMQ2 1-931 isoform Q4KMQ2-2): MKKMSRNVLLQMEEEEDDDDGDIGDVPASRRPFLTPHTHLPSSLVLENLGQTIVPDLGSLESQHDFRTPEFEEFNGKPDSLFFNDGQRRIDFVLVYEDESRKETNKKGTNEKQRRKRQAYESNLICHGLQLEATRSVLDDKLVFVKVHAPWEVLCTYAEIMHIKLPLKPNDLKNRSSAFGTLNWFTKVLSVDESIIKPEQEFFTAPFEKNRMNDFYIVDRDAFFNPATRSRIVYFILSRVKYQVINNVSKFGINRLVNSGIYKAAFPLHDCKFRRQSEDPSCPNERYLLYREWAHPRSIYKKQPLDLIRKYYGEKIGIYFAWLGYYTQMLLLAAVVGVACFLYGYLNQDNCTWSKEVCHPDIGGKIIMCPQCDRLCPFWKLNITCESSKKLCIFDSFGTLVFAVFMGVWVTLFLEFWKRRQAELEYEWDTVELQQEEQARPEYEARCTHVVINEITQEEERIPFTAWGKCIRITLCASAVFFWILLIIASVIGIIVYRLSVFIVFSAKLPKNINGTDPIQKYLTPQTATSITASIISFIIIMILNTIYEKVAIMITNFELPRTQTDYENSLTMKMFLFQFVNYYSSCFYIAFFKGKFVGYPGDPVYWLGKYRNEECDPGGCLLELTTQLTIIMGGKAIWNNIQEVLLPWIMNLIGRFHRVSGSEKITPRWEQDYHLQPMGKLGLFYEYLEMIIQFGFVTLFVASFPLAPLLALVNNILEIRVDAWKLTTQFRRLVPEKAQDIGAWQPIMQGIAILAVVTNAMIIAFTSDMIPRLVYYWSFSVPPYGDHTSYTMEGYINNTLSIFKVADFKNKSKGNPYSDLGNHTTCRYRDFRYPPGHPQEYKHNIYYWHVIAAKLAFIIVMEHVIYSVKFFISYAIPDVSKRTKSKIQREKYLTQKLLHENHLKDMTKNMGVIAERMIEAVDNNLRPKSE
- EXPERIMENT_NOTES: YFP quenching assay (ANO6 ion channel activity)
- Type: cell-based
- CONDITION_SUMMARY: test compound 1 μM, 10 μM ionomycin, read-out: Inhibition Level 1 μM
EXPERIMENTAL_READOUT: inhibition at 1 µM

1) CN(C)CCNC(=O)c1cccc(Nc2ncc(-c3ccccc3)cn2)c1 [Compound 95] = < 30%
2) CCC(C)NC(=O)c1cccc(Nc2ccc(-c3ccccc3)nn2)c1 (centres unmarked) [Compound A78] = ≥ 60%
3) Cc1ccc(CNC(=O)c2cccc(Nc3ccc(-c4ccncc4)nn3)c2)o1 [Compound 9] = < 30%
4) Cc1ccc(CNC(=O)c2cccc(Nc3cnc(-c4ccccc4)cn3)c2)o1 [Compound 1] = 30 to 60%
5) CC(C)CNC(=O)c1cccc(Nc2ccc(-c3ccc(F)cc3)nn2)c1 [Compound A11] = ≥ 60%
6) CCN(CCCNC(=O)c1cccc(Nc2ccc(-c3ccccc3)nn2)c1)Cc1ccccc1 [Compound A42] = 30 to 60%
7) O=C(NCc1ccc(Br)cc1)c1cccc(Nc2ccc(-c3ccc(F)cc3)nn2)c1 [Compound A26] = 30 to 60%
8) CN1CCN(CCNC(=O)c2cccc(Nc3ncc(-c4ccccc4)cn3)c2)CC1 [Compound 97] = < 30%
9) Cc1ccc(CNC(=O)c2cccc(Nc3ncc(-c4ccccc4C(F)(F)F)cn3)c2)o1 [Compound 98] = ≥ 60%
10) Cc1ccc(CNC(=O)c2cccc(Nc3ccc(-c4ccccc4)nn3)c2)s1 [Compound 40] = ≥ 60%
11) O=C(NCCCc1ccccc1)c1cccc(Nc2ccc(-c3ccccc3)cc2)c1 [Compound 53] = ≥ 60%

Data provenance: patent US20230080054A1
